Experimental System: norovirus GII.3 TCH strain virus-like particle (VLP) (norovirus GII.3 TCH strain)
Test Details: BLI (BLItz), biotinylated peptide on SA chip, VLP in solution
Where no end group is shown, it is not given here.
Quick reference for Kd among some binders
Lab book: enter the figure in µM, no units written.

Binder: GCVGDLYCSA (cysteine pairing not given here; also: biotinylated, residue not given here, spacer sequence added, letters and position not given here) [norovirus-binding peptide of SEQ ID NO: 172]
Kd (µM): 69.3

Q) I am curious: what Kd value has been reported for KYRATICHTV (also: biotinylated, residue not given here, spacer sequence added, letters and position not given here) [norovirus-binding peptide of SEQ ID NO: 52] ?
A) 0.0138
